system: human APOE RNA; test: Activity in APOE C57BL/6NTac-Apoeem7250 knock-in mice, single ICV bolus, 20 weeks (Example 13); format: in vivo; conditions: cortex; single ICV bolus 300 μg; 20 weeks post treatment; normalized to mouse Ppia
Strand notation (5' to 3'): a small letter for the sugar, then the base; units joined by * are phosphorothioate-linked, units joined directly phosphodiester-linked; [ ] holds rarer units or linkages, { } end groups; capitals alone tell only the bases. [ms] = mesyl phosphoramidate linkage; e = 2'-O-(2-methoxyethyl) (MOE); k = constrained ethyl (cEt); [5mC] = 5-methylcytosine; d = 2'-deoxy (DNA)

{"Substance": "1778110: 6-10-4 MOE gapmer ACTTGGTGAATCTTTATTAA, linkages soooosszzsssssszoss (eA*e[5mC]eTeTeGeG*dT*dG[ms]dA[ms]dA*dT*d[5mC]*dT*dT*dT*dA[ms]eTeT*eA*eA) [compound 1778110]", "Output Unit": "% control", "APOE RNA (% control) Cortex": 81}
{"Substance": "1757572 (eA*e[5mC]eTeT*kG*kG*dT*dG[ms]dA[ms]dA[ms]dT*d[5mC]*dT*dT*dT*dA[ms]eT*eT*eA*eA; antisense) [Compound 1757572]", "Output Unit": "% control", "APOE RNA (% control) Cortex": 51}
{"Substance": "1736523: 6-10-4 MOE gapmer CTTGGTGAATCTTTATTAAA, linkages ssoooszzssssssssoss (e[5mC]*eT*eTeGeGeT*dG[ms]dA[ms]dA*dT*d[5mC]*dT*dT*dT*dA*dT*eTeA*eA*eA) [compound 1736523]", "Output Unit": "% control", "APOE RNA (% control) Cortex": 73}
{"Substance": "1757559: mixed MOE/cEt gapmer TTGGTGAATCTTTATTAA, sugar eeeekddddddddkeeee, linkages soossssssssssooss (eT*eTeGeG*kT*dG*dA*dA*dT*d[5mC]*dT*dT*dT*kAeTeT*eA*eA) [compound 1757559]", "Output Unit": "% control", "APOE RNA (% control) Cortex": 94}

====

system: human APOE RNA; assay: Activity in APOE 1549 knock-in mice, single ICV bolus, 2 weeks (Example 7); type: in vivo; conditions: single ICV bolus of 300 μg, two weeks post treatment, spinal cord, Table 16
Strand notation (5' to 3'): a small letter for the sugar, then the base; units joined by * are phosphorothioate-linked, units joined directly phosphodiester-linked; [ ] holds rarer units or linkages, { } end groups; capitals alone tell only the bases. e = 2'-O-(2-methoxyethyl) (MOE); [5mC] = 5-methylcytosine; d = 2'-deoxy (DNA)
Readout Kind: APOE RNA (% control) Spinal Cord

{"Substance": "1601957: 6-10-4 MOE gapmer TCCTCATTTTAAAGTTCTCC, linkages sooooossssssssssoss (antisense eT*e[5mC]e[5mC]eTe[5mC]eAdT*dT*dT*dT*dA*dA*dA*dG*dT*dT*e[5mC]eT*e[5mC]*e[5mC]) [compound 1601957]", "Readout Kind": "APOE RNA (% control) Spinal Cord", "Output Unit": "% control", "Test Value": 90}
{"Substance": "1601959: 6-10-4 MOE gapmer CCGTGTCGCTGCCCCTGGCT, linkages sooooossssssssssoss (antisense e[5mC]*e[5mC]eGeTeGeTd[5mC]*dG*d[5mC]*dT*dG*d[5mC]*d[5mC]*d[5mC]*d[5mC]*dT*eGeG*e[5mC]*eT) [compound 1601959]", "Readout Kind": "APOE RNA (% control) Spinal Cord", "Output Unit": "% control", "Test Value": 85}
{"Substance": "1601955: 6-10-4 MOE gapmer GCTAATTCAGTCCTCATTTT, linkages sooooossssssssssoss (antisense eG*e[5mC]eTeAeAeTdT*d[5mC]*dA*dG*dT*d[5mC]*d[5mC]*dT*d[5mC]*dA*eTeT*eT*eT) [compound 1601955]", "Readout Kind": "APOE RNA (% control) Spinal Cord", "Output Unit": "% control", "Test Value": 111}
{"Substance": "1601958: 6-10-4 MOE gapmer CTTCACATTCTAAGCTCCAA, linkages sooooossssssssssoss (antisense e[5mC]*eTeTe[5mC]eAe[5mC]dA*dT*dT*d[5mC]*dT*dA*dA*dG*d[5mC]*dT*e[5mC]e[5mC]*eA*eA) [compound 1601958]", "Readout Kind": "APOE RNA (% control) Spinal Cord", "Output Unit": "% control", "Test Value": 102}
